TESTED SYSTEM: T1, GIPR (UniProt P48546 22-466, limits assumed)
T1 sequence (looked up): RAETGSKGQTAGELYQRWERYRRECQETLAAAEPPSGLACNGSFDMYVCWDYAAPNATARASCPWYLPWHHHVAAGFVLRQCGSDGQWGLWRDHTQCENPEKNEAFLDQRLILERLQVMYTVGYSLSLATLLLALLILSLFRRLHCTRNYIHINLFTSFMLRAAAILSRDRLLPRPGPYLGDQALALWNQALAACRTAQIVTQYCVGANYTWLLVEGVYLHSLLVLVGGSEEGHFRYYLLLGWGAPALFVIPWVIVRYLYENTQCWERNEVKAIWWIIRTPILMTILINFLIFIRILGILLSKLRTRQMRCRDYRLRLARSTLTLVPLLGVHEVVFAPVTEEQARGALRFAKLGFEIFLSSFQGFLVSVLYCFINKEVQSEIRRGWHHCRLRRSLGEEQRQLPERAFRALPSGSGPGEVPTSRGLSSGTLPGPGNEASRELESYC
ASSAY NAME: cell-based or functional assay
Kindly supply the reported EC50 value, cellular cAMP assay (Hit Hunter cAMP) values for the records listed here.
Give the value in nM but do not write nM after it.

For the binder YXQGTFTSDYSIXLDKXAQXAFIEYLLEGGPSSGAPPPS (Aib at 2; αMethyl-Leu at 13; Lys 17 ε-amino acylated with Moiety C; Aib at 20; C-terminal amide) [Compound 19] , report EC50 value, cellular cAMP assay (Hit Hunter cAMP).
0.0138

For the binder YXQGTFTSDYSIXLDKXAQXAFIEYLLEGGPSSGAPPPS (Aib at 2; norvaline at 13; Lys 17 ε-amino acylated with Moiety B; Aib at 20; C-terminal amide) [Compound 17] , report EC50 value, cellular cAMP assay (Hit Hunter cAMP).
0.0115

For the binder YXQGTFTSDYSIXLDKXAQXAFIEYLLEGGPSSGAPPPS (Aib at 2; norleucine at 13; Lys 17 ε-amino acylated with Moiety B; Aib at 20; C-terminal amide) [Compound 14] , report EC50 value, cellular cAMP assay (Hit Hunter cAMP).
24

For the binder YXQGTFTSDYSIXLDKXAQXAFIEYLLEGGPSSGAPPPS (Aib at 2; αMethyl-Leu at 13; Lys 17 ε-amino acylated with Moiety A; Aib at 20; C-terminal amide (Rink amide resin)) [Compound 12] , report EC50 value, cellular cAMP assay (Hit Hunter cAMP).
12

For the binder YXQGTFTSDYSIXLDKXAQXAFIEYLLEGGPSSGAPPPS (not fully specified; Aib at 2; norvaline at 13; Lys 17 ε-amino acylated with Moiety G; Aib at 20; C-terminal amide) [Compound 18] , report EC50 value, cellular cAMP assay (Hit Hunter cAMP).
0.0227

For the binder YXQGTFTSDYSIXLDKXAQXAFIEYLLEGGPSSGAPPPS (Aib at 2; αMethyl-Leu at 13; Lys 17 ε-amino acylated with Moiety D; Aib at 20; C-terminal amide) [Compound 20] , report EC50 value, cellular cAMP assay (Hit Hunter cAMP).
0.0181
